pIC50: −log10 of the molar value.
Lab note: pIC50 readings collected with Axl (h) (Homo sapiens, UniProt P30530) for the following compounds.
Sequence (P30530 26-894): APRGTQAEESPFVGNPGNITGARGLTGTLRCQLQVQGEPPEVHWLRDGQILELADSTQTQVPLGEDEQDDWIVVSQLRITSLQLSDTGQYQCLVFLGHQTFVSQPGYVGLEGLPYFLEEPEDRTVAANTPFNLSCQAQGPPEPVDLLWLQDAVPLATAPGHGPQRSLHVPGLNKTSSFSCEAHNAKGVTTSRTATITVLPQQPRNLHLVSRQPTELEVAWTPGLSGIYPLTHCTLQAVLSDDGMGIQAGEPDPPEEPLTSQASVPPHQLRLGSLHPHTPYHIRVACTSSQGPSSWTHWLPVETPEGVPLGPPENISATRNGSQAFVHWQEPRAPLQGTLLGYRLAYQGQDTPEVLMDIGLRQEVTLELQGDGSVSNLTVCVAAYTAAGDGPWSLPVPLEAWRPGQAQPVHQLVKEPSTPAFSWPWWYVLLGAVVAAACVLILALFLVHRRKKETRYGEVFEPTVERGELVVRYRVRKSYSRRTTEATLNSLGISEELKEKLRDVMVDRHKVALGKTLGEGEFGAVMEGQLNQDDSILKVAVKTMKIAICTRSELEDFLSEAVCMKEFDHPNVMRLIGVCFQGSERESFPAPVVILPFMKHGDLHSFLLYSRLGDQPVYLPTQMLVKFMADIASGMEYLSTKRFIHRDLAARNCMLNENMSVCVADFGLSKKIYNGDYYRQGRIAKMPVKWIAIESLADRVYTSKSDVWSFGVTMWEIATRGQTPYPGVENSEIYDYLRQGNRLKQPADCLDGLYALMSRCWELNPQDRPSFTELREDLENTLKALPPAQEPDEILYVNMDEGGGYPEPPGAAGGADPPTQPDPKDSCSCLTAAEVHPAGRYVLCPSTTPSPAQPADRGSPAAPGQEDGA
readout_type: pIC50

Would you please look over these solved cases?
input_smiles	system_under_test	pIC50
COc1cc2nccc(Oc3ccc(NC(=O)c4nn(C5CCOCC5)cc(-c5ccc(C)cc5)c4=O)cc3F)c2cc1OC	Axl (h) (Homo sapiens, UniProt P30530)	7.64
COc1cc2nccc(Oc3ccc(NC(=O)c4cn(C5CCOCC5)cc(-c5ccc(F)cc5)c4=O)nc3)c2cc1OC	Axl (h) (Homo sapiens, UniProt P30530)	7.89

I. COc1cc2nccc(Oc3cnc(NC(=O)c4cn(CC5CCSCC5)cc(-c5ccc(C)cc5)c4=O)nc3)c2cc1OC
II. COc1cc2nccc(Oc3cnc(NC(=O)c4cn(C5CCOCC5)cc(-c5ccc(C)cc5)c4=O)nc3)c2cc1OC
Response body: label of entry with the larger pIC50; valid values I , II . Give the chosen item's label as your response.
II

Hey, just so you know, these numbers are from patent US20210177828A1.
